# System: Escherichia coli
# MEASUREMENT_DESCRIPTION: Antimicrobial activity against Escherichia coli MTCC 724 after 24 hrs by microdilution method
# Assay type: functional
# ASSAY_SETUP: MTCC 724, 24 h
Here, each record is paired with measured MIC data.
Give a bare numeral; the unit µg/mL is implied.

Asked: Given Cc1c(-c2nnc(-c3ccc([N+](=O)[O-])cc3)o2)c(-c2ccccc2)nn1-c1ccccc1 , state its recorded MIC.
Given back: 25

Asked: // lookup MIC for CN(C)[C@@H]1C(O)=C(C(N)=O)C(=O)[C@@]2(O)C(O)=C3C(=O)c4c(O)cccc4[C@@](C)(O)[C@H]3C[C@@H]12 [TETRACYCLINE]
Given back: 12

Asked: Tell me the measured MIC of Cc1c(-c2nnc(-c3ccc(Cl)cc3)o2)c(-c2ccccc2)nn1-c1ccccc1 , please.
Given back: 35

Others:
Asked: Quick one: MIC for COc1cc(-c2nnc(-c3c(-c4cc(OC)c(OC)c(OC)c4)nn(-c4ccccc4)c3C)o2)cc(OC)c1OC ?
Given back: 20

Asked: Reported MIC for Cc1c(-c2nnc(-c3ccc([N+](=O)[O-])cc3)o2)c(-c2ccc([N+](=O)[O-])cc2)nn1-c1ccccc1 : what is it?
Given back: 25

Asked: Using the record for Cc1c(-c2nnc(-c3ccccc3)o2)c(-c2ccc([N+](=O)[O-])cc2)nn1-c1ccccc1 , report its MIC.
Given back: 25

Asked: // query MIC value for entry COc1ccc(-c2nnc(-c3c(-c4ccccc4)nn(-c4ccccc4)c3C)o2)cc1
Given back: 45

Asked: Find the recorded MIC belonging to Cc1c(C(=O)NN)c(-c2ccccc2)nn1-c1ccccc1 and report it.
Given back: 35
